# Tested on: UACC-62 melanoma
# PROTOCOL_DETAILS: NCI tumour cell line growth inhibition, 48 h
Values of TGI greater than or equal to 30 µM map to Y; values below map to N.

Solved entries (count: 5):
>>> qualitative_label("Cc1nc2ccccc2c(=O)n1/N=C(\\N=Nc1ccccc1Cl)c1ccccc1Cl")
"Y"
>>> qualitative_label("Cc1ccc(NC(=O)c2cc(S(=O)(=O)Nc3nnc(-c4ccccc4)c(-c4ccccc4)n3)c(SCc3ccccc3)cc2Cl)cc1")
"Y"
>>> qualitative_label("CCCCCCCCCCCCCCCCCCNc1ccn(C2OC(COP(=O)(O)OCC3OC(n4ccc(N)nc4=O)C(O)C3O)C(O)C2O)c(=O)n1 (stereo not given)")
"Y"
>>> qualitative_label("CCOc1cnc(C(O)(c2ccccc2)c2ccccc2)o1")
"Y"
>>> qualitative_label("Cc1ccc(S(=O)(=O)NCCCCC(N)C(=O)O)cc1 (stereo not given)")
"Y"

Q: # check: TGI of S=C1Cc2c(-c3ccccc3)cc(-c3cccc(Cl)c3)nc2-c2ccccc2N1 is greater than or equal to 30 µM
A: N

Q: # check: TGI of CC(C)(C)OC(=O)N(CCCCNC(=O)C(F)(F)F)CCCNC(=O)C(F)(F)F is greater than or equal to 30 µM
A: Y

Q: # check: TGI of CN1CCN(c2c(F)cc(NC3=C(Cl)C(=O)c4ncccc4C3=O)cc2F)CC1 is greater than or equal to 30 µM
A: N

Q: # check: TGI of COc1ccc2c(C(=O)O)cc3ccccc3c2c1OC is greater than or equal to 30 µM
A: Y

Q: # check: TGI of S=C1SCN(Cc2ccccc2)CN1Cc1ccco1 is greater than or equal to 30 µM
A: N

Source: PubChem BioAssay (NCI)
